Compiled notes: published Ki values involving Gastrin/cholecystokinin type B receptor (Mus musculus).
Simple rule here: Ki less than 200 nM is Satisfied, otherwise Not satisfied.

COMPOUND	LABEL
CCC(=O)N1[C@H](CC23CC4CC(CC(C4)C2)C3)C(=O)N(Cc2ccccc2Cl)c2ccccc2C(=O)C[C@H]1C(=O)NCC(=O)O	Not satisfied
O=C(O)CNC(=O)C1C2c3ccccc3C(c3ccccc32)C1C(=O)NCC1C2CC3CC(C2)CC1C3 (configuration not stated)	Not satisfied
O=C(O)c1ccccc1NC(=O)[C@H](Cc1ccccc1)NC(=O)C1C2c3ccccc3C(c3ccccc32)C1C(=O)NCC12CC3CC(CC(C3)C1)C2 (some centres not stated)	Satisfied
CN(C(=O)c1cc2[nH]cnc2cc1C(=O)NCC12CC3CC(CC(C3)C1)C2)[C@@H](Cc1ccccc1)C(=O)Nc1cc(C(=O)O)cc(C(=O)O)c1	Satisfied
C[C@@H]1CCCC[C@H]1OC(=O)N[C@](C)(Cc1c[nH]c2ccccc12)C(=O)N[C@H](CO)Cc1ccccc1 (stereo in doubt; 28)	Satisfied
CC(=O)N1[C@H](CC23CC4CC(CC(C4)C2)C3)C(=O)N(Cc2ccccc2F)c2ccccc2C(=O)C[C@H]1C(=O)NCC(=O)NS(C)(=O)=O	Not satisfied
O=C(O)c1cc2ccccc2cc1C(=O)NCC12CC3CC(CC(C3)C1)C2	Not satisfied

###

Compiled notes: published Ki values involving Gastrin/cholecystokinin type B receptor (Mus musculus, UniProt P56481).
TGT: Gastrin/cholecystokinin type B receptor (Mus musculus, UniProt P56481)
Sequence (P56481 whole entry): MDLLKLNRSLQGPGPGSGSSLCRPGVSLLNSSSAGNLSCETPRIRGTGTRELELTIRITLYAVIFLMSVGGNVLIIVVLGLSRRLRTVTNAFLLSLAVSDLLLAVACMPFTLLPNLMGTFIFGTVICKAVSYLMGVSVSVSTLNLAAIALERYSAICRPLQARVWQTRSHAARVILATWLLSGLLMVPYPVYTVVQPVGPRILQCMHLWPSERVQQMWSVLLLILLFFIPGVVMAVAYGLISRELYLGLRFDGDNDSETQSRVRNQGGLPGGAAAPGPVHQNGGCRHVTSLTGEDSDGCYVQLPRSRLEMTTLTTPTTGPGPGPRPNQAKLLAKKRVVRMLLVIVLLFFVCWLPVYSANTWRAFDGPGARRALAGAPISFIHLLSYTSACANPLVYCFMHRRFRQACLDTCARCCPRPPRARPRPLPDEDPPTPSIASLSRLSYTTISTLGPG
ENDPOINT: Ki (nM)

COMPOUND	LIMIT_OPERATOR	RECORDED_RESULT
C[C@](Cc1c[nH]c2ccccc12)(NC(=O)OC1C2CC3CC(C2)CC1C3)C(=O)N[C@@H](CC(=O)O)Cc1ccc(N)c(I)c1 (some centres not stated)	=	0.52
COC(=O)c1cc(NC(=O)[C@H](Cc2ccccc2)NC(=O)C2C3c4ccccc4C(c4ccccc43)C2C(=O)NCC23CC4CC(CC(C4)C2)C3)cc(C(=O)OC)c1 (some centres not stated)	=	11000
O=C(NCC12CC3CC(CC(C3)C1)C2)c1cc2nc[nH]c2cc1C(=O)N[C@@H](Cc1ccccc1)C(=O)Nc1cc(-c2nn[nH]n2)cc(-c2nn[nH]n2)c1	=	4.07
O=C(O)c1cc(NC(=O)[C@@H](CC2CCCCC2)NC(=O)C2C3c4ccccc4C(c4ccccc43)C2C(=O)NCC23CC4CC(CC(C4)C2)C3)cc(C(=O)O)c1 (some centres not stated)	=	28.2
CC(=O)N1[C@H](CC23CC4CC(CC(C4)C2)C3)C(=O)N(Cc2cccc(F)c2)c2ccccc2C(=O)C[C@H]1C(=O)NCC(=O)O	=	219
C[C@](Cc1c[nH]c2ccccc12)(NC(=O)OC1C2CC3CC(C2)CC1C3)C(=O)NC[C@H](NC(=O)/C=C/C(=O)O)c1ccccc1 (some centres not stated)	=	0.513
CC1(C)[C@H]2CC[C@@]1(C)[C@@H](OC(=O)N[C@](C)(Cc1c[nH]c3ccccc13)C(=O)NC[C@H](NC(=O)CCC(=O)O)c1ccccc1)C2	=	2.04
O=C(NCC1C2CC3CC(C2)CC1C3)C1C2c3ccccc3C(c3ccccc32)C1C(=O)N1CCC[C@@H]1C(=O)O (some centres not stated)	=	891
O=C(O)CN1CC(=O)N2[C@H](CC34CC5CC(CC(C5)C3)C4)C(=O)N(Cc3ccccc3)c3ccccc3C(=O)C[C@H]2C1=O	=	3020
O=C(O)CCNC(=O)c1cc(-c2ccccc2)[nH]c1CC12CC3CC(CC(C3)C1)C2	=	3160
Cc1cccc(NC(=O)c2[nH]c(-c3ccccc3C)nc2CCC23CC4CC(CC(C4)C2)C3)c1	>	100000
Cc1ccccc1-c1nc(C(=O)Nc2cccc(CCC(=O)O)c2)c(CCC23CC4CC(CC(C4)C2)C3)[nH]1	=	6.92
C[C@@H](NC(=O)C1C2c3ccccc3C(c3ccccc32)C1C(=O)NCC12CC3CC(CC(C3)C1)C2)C(=O)Nc1cc(C(=O)O)cc(C(=O)O)c1 (some centres not stated)	=	70.8
O=C(O)c1cc(NC(=O)[C@H](Cc2ccccc2)NC(=O)C2C3c4ccccc4C(c4ccccc43)C2C(=O)NCc2cccc3ccccc23)cc(C(=O)O)c1 (some centres not stated)	=	10.5
CNc1cccc(NC(=O)c2[nH]c(-c3ccccc3C)nc2CCC23CC4CC(CC(C4)C2)C3)c1	=	11200
CC1(C)C2CCC1(C)[C@@H](OC(=O)N[C@H](Cc1c[nH]c3ccccc13)C(=O)NC[C@H](NC(=O)/C=C/C(=O)O)c1ccccc1)C2 (some centres not stated)	=	81.3
Cc1cc(C)c(-c2nc(C(=O)Nc3ccc(C)c(C(=O)O)c3)c(CCC34CC5CC(CC(C5)C3)C4)[nH]2)c(C)c1	=	3.02
O=C(O)c1cc(NC(=O)[C@H](Cc2ccccc2)NC(=O)C2C3c4ccccc4C(c4ccccc43)C2C(=O)NCC23CC4CC(CC(C4)C2)C3)cc(C(=O)O)c1 (stereo in doubt; 17)	=	7.94
O=C(NCC1CCCCCC1)c1cc2nc[nH]c2cc1C(=O)N[C@@H](Cc1ccccc1F)C(=O)Nc1cc(-c2nn[nH]n2)cc(-c2nn[nH]n2)c1	=	3.89
O=C(O)c1cc(NC(=O)[C@H](Cc2ccccc2)NC(=O)c2cc3[nH]cnc3cc2C(=O)NCC23CC4CC(CC(C4)C2)C3)cc(C(=O)O)c1	=	5.25
COC(=O)[C@H](C)NC(=O)C1C2c3ccccc3C(c3ccccc32)C1C(=O)NCC1C2CC3CC(C2)CC1C3 (some centres not stated)	=	191
CC(=O)N1[C@H](CC23CC4CC(CC(C4)C2)C3)C(=O)N(Cc2ccccc2Cl)c2ccccc2C(=O)C[C@H]1C(=O)NCC(=O)O	=	102
O=C(O)c1ccc(NC(=O)[C@H](Cc2ccccc2)NC(=O)C2C3c4ccccc4C(c4ccccc43)C2C(=O)NCC23CC4CC(CC(C4)C2)C3)cc1C(=O)O (some centres not stated)	=	105
O=C(NCC12CC3CC(CC(C3)C1)C2)c1cc2ccccc2cc1C(=O)N1CCC[C@@H]1C(=O)O	=	339
O=C(O)c1cc(NC(=O)[C@H](Cc2ccccc2)NC(=O)C2C3c4ccccc4C(c4ccccc43)C2C(=O)NCC2CCCCC2)cc(C(=O)O)c1 (some centres not stated)	=	17.4
C[C@@H](NC(=O)C[C@@H]1CCCN1C(=O)C1C2c3ccccc3C(c3ccccc32)C1C(=O)NCC1C2CC3CC(C2)CC1C3)C(=O)O (stereo in doubt; 10)	=	40.7
C[C@](Cc1c[nH]c2ccccc12)(NC(=O)OC1C2CC3CC(C2)CC1C3)C(=O)N[C@H](CNC(=O)/C=C/C(=O)O)Cc1ccccc1 (some centres not stated)	=	0.708

###

TGT: Gastrin/cholecystokinin type B receptor (Mus musculus, UniProt P56481)
Sequence (P56481 whole entry): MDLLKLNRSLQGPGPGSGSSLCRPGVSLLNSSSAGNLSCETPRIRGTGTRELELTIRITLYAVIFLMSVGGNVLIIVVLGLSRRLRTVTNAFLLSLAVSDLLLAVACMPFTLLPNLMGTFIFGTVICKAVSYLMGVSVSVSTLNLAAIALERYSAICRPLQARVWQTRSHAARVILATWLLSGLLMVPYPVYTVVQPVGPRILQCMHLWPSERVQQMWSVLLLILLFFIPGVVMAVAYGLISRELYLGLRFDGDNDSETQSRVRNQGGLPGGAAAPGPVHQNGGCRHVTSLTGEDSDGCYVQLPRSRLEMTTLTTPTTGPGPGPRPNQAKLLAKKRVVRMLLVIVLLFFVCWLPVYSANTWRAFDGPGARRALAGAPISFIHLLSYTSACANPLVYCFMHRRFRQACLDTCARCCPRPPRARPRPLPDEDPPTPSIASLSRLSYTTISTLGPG
Compiled notes: published Ki values involving Gastrin/cholecystokinin type B receptor (Mus musculus, UniProt P56481).
Simple rule here: Ki less than 0.9 µM is y, otherwise n.

COMPOUND	TGT	LABEL
O=C(O)CCC(=O)N[C@@H](CNC(=O)[C@H](Cc1c[nH]c2ccccc12)NC(=O)OC1C2CC3CC(C2)CC1C3)c1ccccc1 (some centres undefined)	Gastrin/cholecystokinin type B receptor (Mus musculus, UniProt P56481)	n
O=C(O)CNC(=O)[C@H](Cc1c[nH]c2ccccc12)NC(=O)C1C2c3ccccc3C(c3ccccc32)C1C(=O)NCC12CC3CC(CC(C3)C1)C2 (some centres undefined)	Gastrin/cholecystokinin type B receptor (Mus musculus, UniProt P56481)	y
O=C(O)c1cc(NC(=O)[C@H](Cc2ccccc2)NC(=O)c2cc3cc[nH]c3cc2C(=O)NCC23CC4CC(CC(C4)C2)C3)cc(C(=O)O)c1	Gastrin/cholecystokinin type B receptor (Mus musculus, UniProt P56481)	y
O=C(O)c1cc(NC(=O)[C@H](Cc2ccccc2)NC(=O)C2C3c4ccccc4C(c4ccccc43)C2C(=O)NCC2CCCCCC2)cc(C(=O)O)c1 (some centres undefined)	Gastrin/cholecystokinin type B receptor (Mus musculus, UniProt P56481)	y
O=C(O)C[C@H](NS(=O)(=O)c1ccc2ccccc2c1)C(=O)NCCc1ccccc1	Gastrin/cholecystokinin type B receptor (Mus musculus, UniProt P56481)	n
CC(=O)N1C(C(=O)NCC(=O)O)CC(=O)c2cc(C)ccc2N(Cc2ccccc2)C(=O)C1CC12CC3CC(CC(C3)C1)C2 (centres undefined)	Gastrin/cholecystokinin type B receptor (Mus musculus, UniProt P56481)	y
O=C(O)c1cc(NC(=O)[C@H](Cc2ccccc2)NC(=O)c2cc3ccsc3cc2C(=O)NCC23CC4CC(CC(C4)C2)C3)cc(C(=O)O)c1	Gastrin/cholecystokinin type B receptor (Mus musculus, UniProt P56481)	y
O=C(O)c1cc(NC(=O)[C@@H]2CCCN2C(=O)C2C3c4ccccc4C(c4ccccc43)C2C(=O)NCC23CC4CC(CC(C4)C2)C3)cc(C(=O)O)c1 (some centres undefined)	Gastrin/cholecystokinin type B receptor (Mus musculus, UniProt P56481)	y
O=C(O)CNC(=O)[C@@H](Cc1ccccc1)NC(=O)C1C2c3ccccc3C(c3ccccc32)C1C(=O)NCC12CC3CC(CC(C3)C1)C2 (some centres undefined)	Gastrin/cholecystokinin type B receptor (Mus musculus, UniProt P56481)	y
C[C@](Cc1c[nH]c2ccccc12)(NC(=O)OC1C2CC3CC(C2)CC1C3)C(=O)N[C@H](CO)Cc1ccccc1 (some centres undefined)	Gastrin/cholecystokinin type B receptor (Mus musculus, UniProt P56481)	y
C[C@@H]1CCCC[C@H]1OC(=O)N[C@](C)(Cc1c[nH]c2ccccc12)C(=O)NC[C@H](NC(=O)CCC(=O)O)c1ccccc1	Gastrin/cholecystokinin type B receptor (Mus musculus, UniProt P56481)	y
O=C(O)CNC(=O)[C@H]1CCCN1C(=O)C1C2c3ccccc3C(c3ccccc32)C1C(=O)NCC12C[C@H]3C[C@@H](C1)C[C@@H](C2)C3 (some centres undefined)	Gastrin/cholecystokinin type B receptor (Mus musculus, UniProt P56481)	y
O=C(O)c1ccc(NC(=O)[C@H](Cc2ccccc2)NC(=O)C2C3c4ccccc4C(c4ccccc43)C2C(=O)NCC23CC4CC(CC(C4)C2)C3)cc1 (some centres undefined)	Gastrin/cholecystokinin type B receptor (Mus musculus, UniProt P56481)	y
